Test system: KHYG-1 (IL-2 2.5 ng/mL)
Assay: relative IC50 (inflection point of fitted viability curve, relative to fitted max inhibition); higher = less sensitive
Settings: 72 h
Categories are assigned from the measured relative IC50 using these intervals: low group (below 200 nM), middle group (200 nM to below 2000 nM), high group (2000 nM or more)

Could you tell me which band COCC[n+]1c2c(n(Cc3cnccn3)c1C)C(=O)c1ccccc1C2=O belongs to? low group

----------
Test system: NKL (IL-2 2.5 ng/mL)
Experiment: percent inhibition of viability; higher = more inhibition
Details: 72 h; 1000 nM
RECORDED ENDPOINT: percent inhibition of viability (%)
Hi! Could you send only the number? It should be in %, unit omitted.

> print(dat)
                                   compound                recorded.endpoint  readout.unit  numeric.value
1  N#Cc1ccc(C(c2ccc(C#N)cc2)n2cncn2)cc1 [Letrozole] (max concentration tested 10000 nM)  percent inhibition of viability             %           11.2
2  N#CC[C@H](C1CCCC1)n1cc(-c2ncnc3[nH]ccc23)cn1 [Ruxolitinib] (max concentration tested 10000 nM)  percent inhibition of viability             %           94.7

// percent inhibition of viability lookup, compound = CNC(=O)c1ccc(-c2cnc3ncc(Cc4ccc5ncccc5c4)n3n2)cc1F [NVP-INC280] (max concentration tested 1000 nM) , result: 1.94

Briefly, percent inhibition of viability measured for Nc1nc(Cl)nc2c1ncn2[C@H]1C[C@H](O)[C@@H](CO)O1 [Cladribine] (max concentration tested 1000 nM) : 98.6

Reported percent inhibition of viability ( O=C1CN2Cc3c(ccc(Cl)c3Cl)N=C2N1 [Anagrelide] (max concentration tested 10000 nM) ) = 5.47

The reported percent inhibition of viability of the compound O=C(Nc1cccc(Nc2ncc(Br)c(NCCc3cnc[nH]3)n2)c1)N1CCCC1 [BX-912] (max concentration tested 10000 nM) was 37.6

CNC(=O)c1cc(COc2nnc(Nc3ccc(Cl)cc3)c3ccoc23)ccn1 [Telatinib] (max concentration tested 10000 nM) has a reported percent inhibition of viability of 24.9

The recorded percent inhibition of viability for entry Cc1ccccc1C(C(=O)NC1CCCCC1)N(C(=O)Cn1ccnc1C)c1cccc(F)c1 (stereo not drawn) [AGI-5198] (max concentration tested 10000 nM) equals 6.62

get_value(item= Nc1nc(N)c2nc(-c3cccc(O)c3)c(-c3cccc(O)c3)nc2n1 [TG100-115] (max concentration tested 10000 nM) , readout=percent inhibition of viability) returns 6.08

Form field percent inhibition of viability, entry C=CC(=O)N1CCC[C@@H](n2nc(-c3ccc(Oc4ccccc4)cc3)c3c(N)ncnc32)C1 [Ibrutinib] (max concentration tested 1000 nM) : 30

The compound CN1CCN(c2ccc3nc(-c4c(N)c5c(F)cccc5[nH]c4=O)[nH]c3c2)CC1 [Dovitinib] (max concentration tested 10000 nM) showed percent inhibition of viability equal to 8.58

The value of percent inhibition of viability measured for the compound CS(=O)(=O)c1ccc(-c2cnc(N)c(C(=O)Nc3ccccc3)n2)cc1 [VE-821] (max concentration tested 10000 nM) turned out to be -0.56

Value of percent inhibition of viability reported for the compound Cc1cnc(Nc2ccc(OCCN3CCCC3)cc2)nc1Nc1cccc(S(=O)(=O)NC(C)(C)C)c1 (max concentration tested 10000 nM) is 83.5

----------
Tested on: normal NK cells expanded with K562-aAPC
Assay: percent inhibition of viability; higher = more inhibition
Conditions: 72 h; IL-2 2.5 ng/mL; 10000 nM
percent inhibition of viability values for the compounds below.
Report as a plain number; the unit % is understood.

> print(dat)
                                   compound  numeric.value
1  Cc1cc(C)c(CNC(=O)c2cc(-c3ccc(CN4CCOCC4)cc3)cc3c2cnn3C2CCCC2)c(=O)[nH]1 [EPZ-5687] (max concentration tested 10000 nM)           0.02
2  CN(C)CCOc1ccc(/C(=C(/CCCl)c2ccccc2)c2ccccc2)cc1 [Toremifene] (max concentration tested 10000 nM)           22.4

Let us move to another entry and its percent inhibition of viability.
Notebook: COc1c(C)cnc(Cn2cnc3c(Cl)nc(N)nc32)c1C [BIIB021] (max concentration tested 10000 nM) , percent inhibition of viability read as 100

----------
Test system: normal primary NK cells, pool 1 (3 donors) (IL-2 2.5 ng/mL)
Assay: percent inhibition of viability; higher = more inhibition
Conditions: 72 h; 1 nM
RECORDED ENDPOINT: percent inhibition of viability

Field: example entries. Status: answers known.
> print(dat)
                                   molecule                               test.system                recorded.endpoint  result
1  Cc1ccc(F)c(NC(=O)Nc2ccc(-c3cccc4[nH]nc(N)c34)cc2)c1 [Linifanib] (max concentration tested 1000 nM)  normal primary NK cells, pool 1 (3 donors) (IL-2 2.5 ng/mL)  percent inhibition of viability   0.66%
2  Cn1cnc2c(F)c(Nc3ccc(Br)cc3F)c(C(=O)NOCCO)cc21 [Binimetinib] (max concentration tested 1000 nM)  normal primary NK cells, pool 1 (3 donors) (IL-2 2.5 ng/mL)  percent inhibition of viability   12.6%
3  C#Cc1cccc(Nc2ncnc3cc(OC)c(OCCCCCCC(=O)NO)cc23)c1 [CUDC-101] (max concentration tested 10000 nM)  normal primary NK cells, pool 1 (3 donors) (IL-2 2.5 ng/mL)  percent inhibition of viability  -3.28%
4  Cc1sc2c(c1C)C(c1ccc(Cl)cc1)=N[C@@H](CC(=O)OC(C)(C)C)c1nnc(C)n1-2 [(+)JQ1] (max concentration tested 10000 nM)  normal primary NK cells, pool 1 (3 donors) (IL-2 2.5 ng/mL)  percent inhibition of viability   1.42%

Sample FC(F)c1nc2ccccc2n1-c1nc(N2CCOCC2)nc(N2CCOCC2)n1 [ZSTK474] (max concentration tested 10000 nM) ; percent inhibition of viability observed: -2.64%

Input Nc1nc(Cl)nc2c1ncn2[C@H]1C[C@H](O)[C@@H](CO)O1 [Cladribine] (max concentration tested 1000 nM) . Output percent inhibition of viability: -7.26%

----------
Listed next: entries and their corresponding percent inhibition of viability.
Tested on: normal primary NK cells, pool 3 (3 donors) (IL-2 2.5 ng/mL)
Test: percent inhibition of viability; higher = more inhibition
Conditions: 72 h; 1000 nM
A number alone suffices; assume %.

// known answers, use as guide
> print(dat)
                                   compound                               test.system  readout.unit  numeric.value
1  COCC(=O)NC/C=C/c1ccc2ncnc(Nc3ccc(Oc4ccc(C)nc4)c(C)c3)c2c1 (max concentration tested 10000 nM)  normal primary NK cells, pool 3 (3 donors) (IL-2 2.5 ng/mL)             %           10.9
2  C=C1C[C@@H]2[C@H](CC[C@]3(C)C(=O)CC[C@@H]23)[C@@]2(C)C=CC(=O)C=C12 [Exemestane] (max concentration tested 10000 nM)  normal primary NK cells, pool 3 (3 donors) (IL-2 2.5 ng/mL)             %           1.19
3  Nc1ncn([C@H]2C[C@H](O)[C@@H](CO)O2)c(=O)n1 [Decitabine] (max concentration tested 10000 nM)  normal primary NK cells, pool 3 (3 donors) (IL-2 2.5 ng/mL)             %           5.08

Briefly, percent inhibition of viability measured for Cn1cc(-c2ccc3nnc(C(F)(F)c4ccc5ncccc5c4)n3n2)cn1 (max concentration tested 10000 nM) : 0.44

The compound listed as c1ccc2c(CCNc3ccc(Nc4ccncc4)cc3)c[nH]c2c1 [Serdemetan] (max concentration tested 10000 nM) has a reported percent inhibition of viability of 41.2

Per the records, this compound ( CNC(=O)c1cc(COc2nnc(Nc3ccc(Cl)cc3)c3ccoc23)ccn1 [Telatinib] (max concentration tested 10000 nM) ) has percent inhibition of viability equal to -5.46

Notebook: O=C(Nc1ccc(-c2ccnc(Nc3ccc(N4CCOCC4)cc3)n2)cc1)C1CCCN1 (stereo not drawn) [XL019] (max concentration tested 10000 nM) , percent inhibition of viability read as 13.9

The compound listed as Oc1ncnc2[nH]ncc12 [Allopurinol] (max concentration tested 10000 nM) has a reported percent inhibition of viability of 0

// percent inhibition of viability lookup, compound = C[C@@H](Oc1cc(-n2cnc3ccc(CN4CCN(C)CC4)cc32)sc1C(N)=O)c1ccccc1C(F)(F)F (max concentration tested 10000 nM) , result: 9.91

Form field percent inhibition of viability, entry CCCS(=O)(=O)Nc1ccc(F)c(C(=O)c2c[nH]c3ncc(-c4ccc(Cl)cc4)cc23)c1F [Vemurafenib] (max concentration tested 10000 nM) : 0.26

// field: percent inhibition of viability; key: COC1=CC(c2cc3ccccc3[nH]2)=N/C1=C\c1[nH]c(C)cc1C [Obatoclax] (max concentration tested 10000 nM) ; value = 9.76

# percent inhibition of viability (compound: COc1cc2c(NC3CCN(C(C)C)CC3)nc(N3CCC(F)(F)CC3)nc2cc1OCCCN1CCCC1 [UNC0642] (max concentration tested 10000 nM) ) is -5.45

Given item Cc1ccc(NC(=O)c2ccc(CN3CCN(C)CC3)cc2)cc1Nc1nc(-c2cccnc2)cs1 [Masitinib] (max concentration tested 10000 nM) , the value recorded as its percent inhibition of viability is -0.94
